System: U2OS
protocol-text: Multiplex assay against U2OS
Type: toxicity, cell-based
reported-conditions: human, 24 h, 1 µM, compound concentration 1 uM, replicate 1
Population Mitochondria Different-Phenotype (%) less than 20% is Y; Population Mitochondria Different-Phenotype (%) greater than or equal to 20% is N.

INSERT INTO results (query_smiles, answer_label) VALUES
  ('CCOC(=O)CCNc1cc(N2CCc3ccccc3CC2)nc(-c2ccccn2)n1', 'N'),
  ('Cc1c(Nc2ccc(S(=O)(=O)N3CCN(C)CC3)cc2F)nc2ccc(-c3cnn(C4CC4)c3)cn2c1=O', 'Y'),
  ('Cc1c(P(=S)(c2ccccc2)c2ccccc2)n2ccccc2[n+]1C/C=C/c1ccccc1.[Br-]', 'Y'),
  ('CN(c1cc(C(F)(F)F)nc(OCCC(=O)O)n1)c1cccc2c1CCC2', 'Y'),
  ('Cc1ccc(S(=O)(=O)NC2c3ccccc3Oc3ccccc32)cc1', 'Y');

---

System: HEK-293T
protocol-text: Multiplex assay against HEK293T;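 also: share of the cells with healthy nuclei that show this phenotype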
Type: toxicity, cell-based
reported-conditions: human, 12 h, 10 µM, compound concentration 10 uM, replicate 2
attribute-measured: Population Tubulin-Different-Phenotype (%)

INSERT INTO assay_data (molecule, measurement) VALUES
  ('Oc1cccc(-c2nc(N3CCOCC3)c3oc4ncccc4c3n2)c1 [PI-103]', 72),
  ('Cl.NC[C@@H]1O[C@H](C23CC4CC(CC(C4)C2)C3)Cc2c1ccc(O)c2O', 27),
  ('Cl.Cn1c2c(c3ccc(Cl)c(Cl)c31)C(C#N)C1(CCNCC1)NC2=O (stereo not drawn)', 95),
  ('CC[C@@]1(O)C(=O)OCc2c1cc1n(c2=O)Cc2cc3ccccc3nc2-1 [CAMPTOTHECIN]', 9),
  ('N#Cc1cccc(C(=O)Nc2cc(-c3ccccc3)nn2-c2ccccc2)c1', 100),
  ('CC(Cc1ccc(O)c(O)c1)C(C)Cc1ccc(O)c(O)c1 (stereo not drawn) [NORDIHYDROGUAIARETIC ACID]', 0),
  ('CC(C)[C@H](CO)Nc1nc(Nc2cccc(Cl)c2)c2ncn(C(C)C)c2n1 [PURVALANOLA]', 97);

---

# Population Mitochondria Different-Phenotype (%) per record follows
Test system: Fibroblast
protocol-text: Multiplex assay against human fibroblast
Type: toxicity, cell-based
reported-conditions: 12 h, 1 µM, compound concentration 1 uM, replicate 2
attribute-measured: Population Mitochondria Different-Phenotype (%)

INSERT INTO assay_data (molecule, system_name, measurement) VALUES
  ('CN(c1cc(C(F)(F)F)nc(OCCC(=O)O)n1)c1cccc2c1CCC2', 'Fibroblast', '20%'),
  ('CC(C)[C@H](CO)Nc1nc(Nc2cccc(Cl)c2)c2ncn(C(C)C)c2n1', 'Fibroblast', '21%'),
  ('Oc1cccc(-c2nc(N3CCOCC3)c3oc4ncccc4c3n2)c1', 'Fibroblast', '7%'),
  ('CCCCCNC(=N)N/N=C/c1c[nH]c2ccc(OC)cc12.O=C(O)/C=C\C(=O)O [TEGASEROD MALEATE]', 'Fibroblast', '22%'),
  ('C=CC(=O)Nc1cc(-n2c(=O)ccc3cnc4ccc(-c5ccc(NS(C)(=O)=O)cc5)cc4c32)ccc1C', 'Fibroblast', '10%'),
  ('CN1C(=O)[C@@H](NC(=O)c2cc3ccccc3[nH]2)N=C(c2ccccc2)c2ccccc21 [DEVAZEPIDE]', 'Fibroblast', '23%');
